- tested-system: RELB subunit;p50 subunit (Homo sapiens;Homo sapiens, UniProt Q01201;P19838 120-401;7-356)
- Sequence (Q01201 120-401, chain 1 of 2): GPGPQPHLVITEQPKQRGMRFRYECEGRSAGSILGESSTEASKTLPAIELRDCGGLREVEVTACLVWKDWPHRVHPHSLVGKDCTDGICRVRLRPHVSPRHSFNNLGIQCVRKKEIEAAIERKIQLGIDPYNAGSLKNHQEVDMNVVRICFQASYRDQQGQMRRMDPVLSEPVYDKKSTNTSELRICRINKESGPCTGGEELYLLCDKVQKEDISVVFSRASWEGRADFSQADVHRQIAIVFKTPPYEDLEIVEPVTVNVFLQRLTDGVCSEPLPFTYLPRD
- Sequence (P19838 7-356, chain 2 of 2): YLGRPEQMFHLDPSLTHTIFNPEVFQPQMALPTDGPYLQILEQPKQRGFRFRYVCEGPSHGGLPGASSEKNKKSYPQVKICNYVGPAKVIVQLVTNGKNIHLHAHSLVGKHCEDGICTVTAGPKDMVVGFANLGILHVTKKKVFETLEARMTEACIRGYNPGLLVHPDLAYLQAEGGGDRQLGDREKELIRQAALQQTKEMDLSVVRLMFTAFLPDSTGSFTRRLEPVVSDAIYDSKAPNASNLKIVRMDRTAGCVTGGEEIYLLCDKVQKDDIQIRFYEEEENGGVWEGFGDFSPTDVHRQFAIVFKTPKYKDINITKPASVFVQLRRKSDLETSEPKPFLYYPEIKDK
- protocol-notes: protein binding microarray; high values mean tight binding
- condition-info: dsDNA, one strand shown
experimental-readout: binding signal (z-score)

* CAGGAAACCCC | 0.925
* AAGGACTCCCC | 0.692
* AAGGTGTCCCT | 1.01
* GGGTTGGTCCT | -0.889
* GGAAGAGCCCT | -0.91
* AGGGATCTCCC | 1.27
* CAGAGCACCCT | -0.474
* CGATAGCCCCC | 0.492
* CAATTACCCCT | 0.941
* CGAAGCATCCT | -1.1
* AAAGGCACCCT | -0.685
* AGGATCACCCT | -0.14
* GAAGTGGCCCC | -0.183
* GGGTGTTCCCC | 2.21
* AAAGTCCCCCT | 2.26

---

- tested-system: C-Rel subunit;p50 subunit (Homo sapiens;Homo sapiens, UniProt Q04864;P19838 1-285;7-356)
- protocol-notes: protein binding microarray; high values mean tight binding
- condition-info: dsDNA, one strand shown
Criterion: binding signal meeting or surpassing 0.9 z-score. Met: met. Not met: not met.

• AAGGACGCCCT = not met
• CGGTTATCCCT = not met
• AGGGGATCCCT = met
• GAATGGCCCCT = not met
• CGGTAACTCCC = not met
• GGAATGCCCCC = met
• GGATTTCTCCT = not met
• CGAGTCTTCCC = not met
• AGGTACATCCT = not met
• AAATTTTTCCC = met
• GGGTAACCCCT = not met
• GGAGTCTCCCC = not met
• CAGTGGTCCCC = not met

---

- tested-system: p50p50 homodimer (Homo sapiens, UniProt P19838 7-356)
- Sequence (P19838 7-356): as the sequence (P19838 7-356, chain 2 of 2) above
- protocol-notes: protein binding microarray; high values mean tight binding
- condition-info: dsDNA, one strand shown
experimental-readout: binding signal

* AGAAAGTCCCC | 1.38 z-score
* GAGGTAGTCCC | 0.907 z-score
* AGAGTCATCCT | -2.61 z-score
* CAAAGTTTCCT | -0.548 z-score
* GGAGGGATCCT | -1.1 z-score
* CAATTATCCCC | 1.12 z-score
* GAGGGATTCCT | 0.321 z-score
* CAAGATCTCCT | -1.36 z-score
* CGAAGCGCCCC | -0.188 z-score
* GAGAAAACCCT | 0.495 z-score
* AGATATCTCCT | -1.24 z-score
* CAGTACCCCCC | 1.15 z-score
* CGAGTTGCCCC | 0.0517 z-score
* GAGGGTTCCCT | -0.133 z-score
* AGATTCCTCCC | -0.426 z-score
* GAATTGTTCCT | -1.38 z-score
* CGATTAGTCCT | -1.16 z-score
* GGAAGAGCCCT | -0.632 z-score
* AGGATCTCCCC | 1.02 z-score
* CAGGATATCCC | -0.266 z-score
* GGAATGATCCC | -0.737 z-score
* GGGGTACTCCT | 0.595 z-score
* CAAAATATCCC | 0.4 z-score
* GAAGATTTCCT | -0.715 z-score
* CGATAAGCCCC | 0.756 z-score
* CGGGTATCCCC | 0.854 z-score
* AAAAGTCTCCC | 0.0889 z-score
* CAGTAGACCCC | -0.398 z-score
* GAGGGCCTCCT | -1.05 z-score
* AAATGTATCCT | -1.3 z-score
* AAAGGGATCCC | -0.302 z-score
* CAGAGTGTCCC | 0.0211 z-score

---

- tested-system: p52p52 homodimer (Homo sapiens, UniProt Q00653 4-332)
- Sequence: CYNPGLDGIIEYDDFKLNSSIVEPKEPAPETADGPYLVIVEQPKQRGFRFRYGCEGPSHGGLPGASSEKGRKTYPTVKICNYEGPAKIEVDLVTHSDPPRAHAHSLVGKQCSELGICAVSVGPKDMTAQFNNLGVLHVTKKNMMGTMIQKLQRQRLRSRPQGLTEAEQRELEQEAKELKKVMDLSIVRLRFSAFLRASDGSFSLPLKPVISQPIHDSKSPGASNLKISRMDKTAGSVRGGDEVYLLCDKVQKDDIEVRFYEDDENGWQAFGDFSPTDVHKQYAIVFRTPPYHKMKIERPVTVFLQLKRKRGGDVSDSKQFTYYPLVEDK
- protocol-notes: protein binding microarray; high values mean tight binding
- condition-info: dsDNA, one strand shown
Response key: class 1 means binding signal >= 0.02 z-score; class 0 means binding signal < 0.02 z-score.

• GAGGGAGCCCT = class 0
• CAATAACTCCC = class 1
• CGGGTTATCCC = class 1
• CAAAGTACCCC = class 1
• GAAGGAACCCT = class 0
• GAGTAAGCCCC = class 1
• AAGTGGCCCCC = class 0
• AAGGAACCCCT = class 1
• GGGTTTGCCCT = class 1
• GAAGTAATCCT = class 0
• AAATGGACCCC = class 0

---

- tested-system: p50p50 homodimer (Homo sapiens, UniProt P19838 7-356)
- protocol-notes: protein binding microarray; high values mean tight binding
- condition-info: dsDNA, one strand shown
Field: label. Allowed values: satisfied (binding signal < 0.3 z-score) or not satisfied (binding signal >= 0.3 z-score).

* AGGGTGCCCCT | not satisfied
* AGGATCACCCT | satisfied
* GGAGACGCCCT | satisfied
* CAGGTTGTCCT | satisfied
* GGGTTCCTCCT | satisfied
* CAGGTTTCCCT | not satisfied

---

- tested-system: C-Rel subunit;p52 subunit (Homo sapiens;Homo sapiens, UniProt Q04864;Q00653 1-285;4-332)
- Sequence 1: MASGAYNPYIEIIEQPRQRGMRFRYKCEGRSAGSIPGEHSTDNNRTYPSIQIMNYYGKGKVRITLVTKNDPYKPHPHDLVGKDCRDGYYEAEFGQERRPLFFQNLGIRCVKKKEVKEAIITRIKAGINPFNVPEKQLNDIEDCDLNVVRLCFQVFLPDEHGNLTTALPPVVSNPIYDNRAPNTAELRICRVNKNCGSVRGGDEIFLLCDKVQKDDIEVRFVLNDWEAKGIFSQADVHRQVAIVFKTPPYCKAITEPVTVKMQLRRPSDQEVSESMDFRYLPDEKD
- Sequence 2: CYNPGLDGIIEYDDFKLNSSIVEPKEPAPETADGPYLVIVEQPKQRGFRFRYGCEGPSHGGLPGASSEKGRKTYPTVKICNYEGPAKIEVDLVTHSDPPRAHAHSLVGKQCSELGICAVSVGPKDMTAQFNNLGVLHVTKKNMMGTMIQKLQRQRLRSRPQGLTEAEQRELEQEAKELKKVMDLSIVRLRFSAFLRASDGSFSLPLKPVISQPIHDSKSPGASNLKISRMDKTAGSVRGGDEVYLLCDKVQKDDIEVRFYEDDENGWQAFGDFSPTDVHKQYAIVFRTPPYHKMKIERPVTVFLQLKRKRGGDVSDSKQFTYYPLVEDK
- protocol-notes: protein binding microarray; high values mean tight binding
- condition-info: dsDNA, one strand shown
Note to self: use criterion met only for binding signal readings below 0.07 z-score; a reading exactly at 0.07 z-score still gets criterion not met.

- AAGTTGATCCC: criterion met
- AGGTTGCTCCC: criterion met
- GGATGATTCCT: criterion met
- GGAGGAGTCCC: criterion not met
- GAGAATTCCCT: criterion not met
- CGAGTTGCCCC: criterion not met
- CGATACCTCCC: criterion met
- CGGGTAGTCCC: criterion not met
- CGGGTCCTCCC: criterion not met
- GAATGGCCCCT: criterion met
- GGGAGTGTCCT: criterion not met
- AGGGGAGTCCT: criterion not met
- CAGGTTTCCCT: criterion not met
- CGGTATCCCCC: criterion not met
- AAGTGTATCCC: criterion met
- GAAAATCTCCC: criterion not met
- AGGGTGGTCCC: criterion not met
- GAAATGCTCCC: criterion met
- CGATGGGCCCT: criterion met
- CAGAATCTCCC: criterion not met
- CGGAGGTTCCC: criterion met
- GAATTAGTCCT: criterion met
- CGGGGGGTCCC: criterion not met
- AGAAGCTCCCT: criterion met
- AGAGGAATCCC: criterion not met
- GAATTCGCCCT: criterion met
- GAAGTGCTCCT: criterion met
- GAATAGACCCT: criterion met
- GAGTGTGCCCT: criterion met
- AAATACACCCC: criterion not met
- GAGAAAACCCT: criterion not met
- CAGGGCCTCCC: criterion met
- CAGTGACCCCT: criterion met
- GAAGTTTCCCC: criterion not met
- CAAGAGGTCCC: criterion met
- CAAAGTCCCCT: criterion not met
